assay system: T1, Cyno RGMa-His (cynomolgus monkey, UniProt Q9N0A6 54-431, limits assumed)
T1 construct: also called cynomolgus (cyno) monkey RGMa (BIAcore); not shown: His tag
T1 sequence (looked up): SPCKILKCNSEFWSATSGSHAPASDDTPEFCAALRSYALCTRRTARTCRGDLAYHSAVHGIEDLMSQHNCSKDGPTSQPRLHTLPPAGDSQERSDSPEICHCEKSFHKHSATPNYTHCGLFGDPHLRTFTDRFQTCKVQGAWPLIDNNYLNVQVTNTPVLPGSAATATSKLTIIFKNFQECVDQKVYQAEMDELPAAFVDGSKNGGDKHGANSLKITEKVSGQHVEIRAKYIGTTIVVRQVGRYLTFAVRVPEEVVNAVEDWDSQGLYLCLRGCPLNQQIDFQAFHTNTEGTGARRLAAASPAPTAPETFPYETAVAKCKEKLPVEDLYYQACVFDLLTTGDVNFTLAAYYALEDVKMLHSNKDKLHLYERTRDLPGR
experimental details: BIAcore
Let's look at some binders and their measured Kd.
Respond numerically; units are nM and should not be typed.

Please review the entries below; each comes with its answer.
binder	Kd, nM
AE12-1-L (antibody, V domains shown, AE12-1 variant; IgG; also called AE-12-L) VH: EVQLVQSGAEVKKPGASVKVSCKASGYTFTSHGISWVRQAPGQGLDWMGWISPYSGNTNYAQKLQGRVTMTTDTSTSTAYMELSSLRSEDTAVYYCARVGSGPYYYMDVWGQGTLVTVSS VL: QSALTQPRSVSGSPGQSVTISCTGTSSSVGDSIYVSWYQQHPGKAPKLMLYDVTKRPSGVPDRFSGSKSGNTASLTISGLQAEDEADYYCLSYAGTDTLFGGGTKVTVL	10.1
AE12-1-F (antibody, V domains shown, AE12-1 variant, Cys of VL CDR-L3 replaced; IgG) VH: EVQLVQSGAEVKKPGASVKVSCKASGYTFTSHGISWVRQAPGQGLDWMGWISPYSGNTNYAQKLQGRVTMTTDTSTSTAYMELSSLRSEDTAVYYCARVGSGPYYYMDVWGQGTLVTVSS VL: QSALTQPRSVSGSPGQSVTISCTGTSSSVGDSIYVSWYQQHPGKAPKLMLYDVTKRPSGVPDRFSGSKSGNTASLTISGLQAEDEADYYCFSYAGTDTLFGGGTKVTVL	5.4
AE12-1-I (antibody, V domains shown, AE12-1 variant; IgG) VH: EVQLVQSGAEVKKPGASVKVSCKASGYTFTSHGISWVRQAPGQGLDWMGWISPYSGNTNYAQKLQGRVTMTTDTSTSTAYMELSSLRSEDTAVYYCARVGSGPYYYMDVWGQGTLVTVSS VL: QSALTQPRSVSGSPGQSVTISCTGTSSSVGDSIYVSWYQQHPGKAPKLMLYDVTKRPSGVPDRFSGSKSGNTASLTISGLQAEDEADYYCISYAGTDTLFGGGTKVTVL	8.9
AE12-1-K (antibody, V domains shown, AE12-1 variant; IgG) VH: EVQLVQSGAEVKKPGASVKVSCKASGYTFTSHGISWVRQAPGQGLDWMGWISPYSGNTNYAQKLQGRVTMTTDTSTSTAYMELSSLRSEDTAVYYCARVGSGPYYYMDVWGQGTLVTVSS VL: QSALTQPRSVSGSPGQSVTISCTGTSSSVGDSIYVSWYQQHPGKAPKLMLYDVTKRPSGVPDRFSGSKSGNTASLTISGLQAEDEADYYCKSYAGTDTLFGGGTKVTVL	9.3
AE12-1-V (antibody, V domains shown, AE12-1 variant; read as AE12-1-V from the order of the variants; IgG) VH: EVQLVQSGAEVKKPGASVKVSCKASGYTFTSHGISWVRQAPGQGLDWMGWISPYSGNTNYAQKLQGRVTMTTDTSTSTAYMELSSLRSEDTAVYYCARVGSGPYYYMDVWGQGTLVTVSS VL: QSALTQPRSVSGSPGQSVTISCTGTSSSVGDSIYVSWYQQHPGKAPKLMLYDVTKRPSGVPDRFSGSKSGNTASLTISGLQAEDEADYYCVSYAGTDTLFGGGTKVTVL	9.2
AE12-1 (antibody, V domains shown, lambda light chain) VH: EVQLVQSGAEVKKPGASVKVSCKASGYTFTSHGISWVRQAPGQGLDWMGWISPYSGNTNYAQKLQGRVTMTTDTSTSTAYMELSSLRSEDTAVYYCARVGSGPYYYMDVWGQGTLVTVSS VL: QSALTQPRSVSGSPGQSVTISCTGTSSSVGDSIYVSWYQQHPGKAPKLMLYDVTKRPSGVPDRFSGSKSGNTASLTISGLQAEDEADYYCCSYAGTDTLFGGGTKVTVL	8.8

## Input Quick one: Kd of AE12-1-Y (antibody, V domains shown, AE12-1 variant; IgG) VH: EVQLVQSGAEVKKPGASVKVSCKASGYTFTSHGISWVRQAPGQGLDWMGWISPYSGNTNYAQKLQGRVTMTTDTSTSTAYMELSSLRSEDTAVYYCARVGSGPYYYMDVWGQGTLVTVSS VL: QSALTQPRSVSGSPGQSVTISCTGTSSSVGDSIYVSWYQQHPGKAPKLMLYDVTKRPSGVPDRFSGSKSGNTASLTISGLQAEDEADYYCYSYAGTDTLFGGGTKVTVL ?
## Output 4.9

## Input Now the same for AE12-1-H (antibody, V domains shown, AE12-1 variant; IgG) VH: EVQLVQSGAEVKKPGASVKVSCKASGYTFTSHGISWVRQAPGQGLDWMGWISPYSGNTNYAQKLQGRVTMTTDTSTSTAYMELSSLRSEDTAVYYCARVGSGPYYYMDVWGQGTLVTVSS VL: QSALTQPRSVSGSPGQSVTISCTGTSSSVGDSIYVSWYQQHPGKAPKLMLYDVTKRPSGVPDRFSGSKSGNTASLTISGLQAEDEADYYCHSYAGTDTLFGGGTKVTVL
## Output 13.4
